Tested on: A498
Experiment: NCI tumour cell line growth inhibition, 48 h
Activity calls are given as the source filed them. No stated cut-off is given here; in the data, active = GI50 up to about 1.1 µM and inactive = higher.
Assign GI50 to each entry below.

Some solved cases for reference:
Qu. Which measured GI50 belongs to O=C(O)C1C2C=CC(O2)C1C(=O)NCc1ccccn1 (centres undefined) , tested on A498?
Ans. > 100 µM (inactive)

Qu. Which measured GI50 belongs to C[C@@H]1OC(=O)C[C@H]2CC(=O)N(CCC3CN(S(=O)(=O)C(F)(F)F)c4ccc(Cc5ccc6c(c5)C(CCN5C[C@H]7[C@@H](CC(=O)O[C@H]7C)CC5=O)CN6S(=O)(=O)C(F)(F)F)cc43)C[C@@H]21 (some centres undefined) , tested on A498?
Ans. > 100 µM (inactive)

Qu. Which measured GI50 belongs to O=P1(N(CCCl)CCCl)NCCCO1 (centres undefined) [CYCLOPHOSPHAMIDE ANHYDROUS] , tested on A498?
Ans. > 238 µM (inactive)

Qu. Which measured GI50 belongs to CC(C)N1[C@@H]2CCCC[C@H]2N(C(C)C)P1(=O)C(=O)/C=C/c1ccccc1 , tested on A498?
Ans. 2.75 µM (inactive)

Hi! Can you tell me GI50 for each of these compounds?
1. O=C(NCCCl)NCc1ccccc1
2. Cc1ccccc1NC(=O)C(=O)CC(=O)c1c(C)[n+]([O-])c2ccccc2[n+]1[O-]
3. O=C(Cc1ccccc1)N/N=C(/CCN1CCCC1)CC(c1ccccc1)c1c(O)c2ccccc2oc1=O (centres undefined)
4. CCCCCCC1OC23OC1CCC2C(O)CCC3O (centres undefined)

Ans.
1. > 100 µM (inactive)
2. > 100 µM (inactive)
3. 28 µM (inactive)
4. > 100 µM (inactive)

Qu. Which measured GI50 belongs to Cc1ccc2c(c1)CC1(Cc3cc(C)ccc3C1=O)C2=O , tested on A498?
Ans. > 100 µM (inactive)

src = ChEMBL document CHEMBL1201862
